target: Cyclin-dependent kinase 2 (Homo sapiens, UniProt P24941)
EXPERIMENTAL_ENDPOINT: IC50 (µM)

Example results:
MOLECULE: N#Cc1cnn2c(Nc3ccc(F)c(Cl)c3)cc(N[C@H]3CC[C@H](N)CC3)nc12
IC50, µM: 0.004

MOLECULE: CCc1c(NC2CCCNC2)nc2ccnn2c1Nc1ccc(F)c(Cl)c1 (racemic)
IC50, µM: 24

MOLECULE: COCCOc1ccc(Nc2c(C)c(N[C@H]3CCCNC3)nc3ccnn23)cc1
IC50, µM: 22

I: Cc1c(N[C@H]2CC[C@H](N)CC2)nc2ccnn2c1Nc1ccccc1Cl
II: CC(=O)c1ccc(-c2ccc(Nc3c(C)c(N[C@H]4CCCNC4)nc4ccnn34)cc2)s1
III: CCc1c(N[C@H]2CC[C@H](N)CC2)nc2ccnn2c1Nc1ccc(F)c(Cl)c1
IV: Cc1c(N[C@H]2CCCNC2)nc2ccnn2c1Nc1ccc(OCCN2CCOCC2)cc1
V: Cc1c(N[C@H]2CC[C@H](N)CC2)nc2ccnn2c1Nc1ccc(F)c(Cl)c1
Qu. Could you please order the items by IC50, going from the lowest number to the highest? Reply with the labels, ordered as the question asks.
Ans. III, I, V, II, IV
(III: 3.6 µM, I: 6.4 µM, V: 11 µM, II: 21 µM, IV: 62 µM)
